Assay system: Glucose transporter (Leishmania mexicana)
Experimental details: ST_JUDE_LEISH: Cytotoxicity at 2uM final concentration against transgenic Leishmania Mexicana promastigotes LmGT2 that are glucose transport deficient and complemented with the L. Mexicana glucose transporter 2. Activity is measured by DNA content using SYBR green in vitro
Assay type: functional
We begin with a simple list: items and their reported inhibition.
Measured metric: inhibition (%)

>>> observed("Cc1noc(C)c1-c1cccc(CNCc2cccc(-c3ccc(-c4nc5cccc(C)c5[nH]4)cc3)c2)c1")
0.96
>>> observed("CCNc1cc(C(=O)N[C@@H](Cc2ccccc2)[C@H](O)CN[C@@H]2CCc3ccccc32)cc(N2CCCCS2(=O)=O)c1")
1.17
>>> observed("COc1ccc(NC(=O)[C@H](CC(C)C)Nc2ccnc(NCCc3ccc(F)cc3)n2)cc1")
1.38
>>> observed("C=CCN1C(=O)C(C(C)=O)=C(O)C1c1ccccc1 (centres undefined)")
0.66
>>> observed("CC(CNCc1cn(Cc2cc(Br)cc(Br)c2)c2ccccc12)CNc1cc(=O)c2ccccc2[nH]1 (centres undefined)")
1.07
>>> observed("Oc1ccc(Cc2ccccc2)cc1CNC1CCCCC1")
1.87
>>> observed("O=C(NCCc1ccc(Cl)c(Cl)c1)[C@@H]1CCCN1C(=O)c1ccc(O)c(-c2ccc(Cl)c(Cl)c2)c1")
-1.51
>>> observed("Oc1ccc(Nc2nc(NCc3ccco3)c3ccccc3n2)cc1")
10.9
>>> observed("CCn1ccc2c(N3CCCCS3(=O)=O)cc(C(=O)N[C@@H](Cc3ccccc3)[C@H](O)CNC(C)(C)c3cccc(C(F)(F)F)c3)cc21")
-1.56

Data credit: ChEMBL document CHEMBL3433997
